The measurements presented in this section are drawn from patent US20220227765A1.

experiment description: Human hepatocyte metabolic stability
Format: in vitro ADME
measurement conditions: 180 min
readout label: human hepatocytes % met @ 180 min (%)
Just the number in %, nothing appended.

Solved entries:
C#CC(=O)N1[C@@H](CCCC)Cc2c([nH]c3c(F)cc(F)cc23)[C@@H]1c1ccccn1
97
C#CC(=O)N1[C@@H](CC2CC2)Cc2c([nH]c3ccccc23)[C@@H]1c1ccc(NC23CC4CC(CC(C4)C2)C3)cc1
38
C#CC(=O)N1[C@@H](CCCC)Cc2c([nH]c3c(F)cc(F)cc23)[C@@H]1c1ccc(NC(=O)OCCCCC)cc1
42

Problem: Need human hepatocytes % met @ 180 min of `O=C(CCl)N1[C@@H](CC2CC2)Cc2c([nH]c3ccccc23)[C@@H]1c1ccc(NC23CC4CC(CC(C4)C2)C3)cc1` , thanks.
Solution: 3.5

====

experiment description: Equilibrium solubility at different pHs and with SBECD
Type: physicochemical
measurement conditions: aqueous buffer, thermodynamic from solid; pH 3.0; read-out: Eq. solubility pH 3.0
readout label: solubility

C#CC(=O)N1[C@@H](CCCC)Cc2c([nH]c3c(F)cc(F)cc23)[C@@H]1c1cccnc1 [Compound B-30]
700 µg/mL

Problem: Need solubility of C#CC(=O)N1[C@@H](CCCC)Cc2c([nH]c3c(F)cc(F)cc23)[C@@H]1c1ccccn1 [Compound B-31] , thanks.
Solution: 15 µg/mL

====

experiment description: Human blood stability
Assay type: in vitro ADME
measurement conditions: 60 min
readout label: human blood stability % remaining (%_60)
Just the number in %_60, nothing appended.

C#CC(=O)N1[C@@H](CCCC)Cc2c([nH]c3c(F)cc(F)cc23)[C@@H]1c1ccccn1
0
O=C(CCl)N1[C@@H](CC2CC2)Cc2c([nH]c3ccccc23)[C@@H]1c1ccc(NC23CC4CC(CC(C4)C2)C3)cc1
77

Problem: Need human blood stability % remaining of `C#CC(=O)N1[C@@H](CCCC)Cc2c([nH]c3ccccc23)[C@@H]1c1ccc(C(=O)NCCOC)cc1` , thanks.
Solution: 22

Problem: And what about the compound `C#CC(=O)N1[C@@H](CCCC)Cc2c([nH]c3c(F)cc(F)cc23)[C@@H]1c1ccc(NC(=O)OCCCCC)cc1` ?
Solution: 18

====

experiment description: Human blood stability
Format: in vitro ADME
measurement conditions: 30 min
Each record here notes measured human blood stability % remaining.
Just the number in %_30, nothing appended.

C#CC(=O)N1[C@@H](CCCC)Cc2c([nH]c3c(F)cc(F)cc23)[C@@H]1c1ccc(NC(=O)OCCCCC)cc1
38
O=C(CCl)N1[C@@H](CC2CC2)Cc2c([nH]c3ccccc23)[C@@H]1c1ccc(NC23CC4CC(CC(C4)C2)C3)cc1
96
C#CC(=O)N1[C@@H](CCCC)Cc2c([nH]c3ccccc23)[C@@H]1c1ccc(C(=O)NCCOC)cc1
55

Problem: Need human blood stability % remaining of `C#CC(=O)N1[C@@H](CCCC)Cc2c([nH]c3c(F)cc(F)cc23)[C@@H]1c1ccccn1` , thanks.
Solution: 0
